# Test system: MAGI-CCR5 cells viability, CellTiter-Glo ATP luminescence
# method: MAGI-CCR5 and HeLa-R5-16 cytotoxicity, dose response, cytotoxicity control for HIV-1 fusion inhibitor project, cell-based, MAGI and MAGI-HeLa co-culture (AID 2286);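 further: cells exposed to compound for at least 64 h before ATP readout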
# testSettings: measured here: MAGI + HeLa-R5-16 co-culture viability
Measured CC50 values are reported for all entries that follow.

// worked examples, CC50 included
compound	CC50
COc1cc(/C=C2\SC(=S)NC2=O)ccc1OS(=O)(=O)c1ccccc1	40.7 µM
Cc1ccc(C)c(S(=O)(=O)/N=C2\C=C(NS(=O)(=O)c3ccccc3)C(=O)c3ccccc32)c1	> 50 µM
O=C(O)CCCCCN1C(=O)/C(=C\c2cn(-c3ccccc3)nc2-c2cccs2)SC1=S	> 50 µM
O=C(NN1C(=O)/C(=C/c2ccc(O)cc2)SC1=S)c1ccccc1O	41.3 µM
O=C(O)C1Nc2ccc(Br)cc2C2C=CCC12 (stereo not drawn)	> 50 µM

Any idea what CC50 came out for CSc1nc(SCC(=O)O)c2sc3nc(-c4ccccc4)c4c(c3c2n1)CCC4 on MAGI-CCR5 cells viability, CellTiter-Glo ATP luminescence?
> 50 µM

Next: O=C(O)CCn1cc(/C=C/C(=O)c2ccc(Cl)cc2)c(-c2ccc(Br)cc2)n1
45.5 µM

Next: Cc1nn(CCc2nn[nH]n2)c2nc(-c3ccc(C4CCCCC4)cc3)cc(C(F)(F)F)c12
> 50 µM

Attribution: PubChem BioAssay AID2286
